- Tested on: GFP-eIF2α in HEK293 cells
- Experimental details: PERK cellular assay, TR-FRET in HEK293-EGFP-eIF2a cells after tunicamycin-induced ER stress
- Format: cell-based
- Setup conditions: HEK293-EGFP-eIF2a cells, tunicamycin 2 hours; read-out: Cellular eIF2α IC50
- Method: Stable cell lines were created in HEK293 cells using lentiviral particles harboring an expression vector for GFP-eIF2α. Cells were selected using puromycin and enriched using fluorescence activated cell sorting against GFP. […] Cells were lysed and TR-FRET was measured in an EnVision plate reader (PerkinElmer). […] IC50 values were calculated using 4-parameter logistical fitting in XLFit.
IC50 for assorted compounds

# Compound, Assay target, IC50
records = [
    ("Cc1nc(N)c2c(-c3ccc(NC(=O)C(O)c4cccc(F)c4)cc3)cn(C)c2n1 (stereo not drawn)", "GFP-eIF2α in HEK293 cells", "1000 to 2000 nM"),
    ("Cc1nc(N)c2c(-c3ccc(NC(=O)C(O)c4cccc(F)c4)c(F)c3F)cn(C)c2n1 (single isomer, unassigned) [Example 110]", "GFP-eIF2α in HEK293 cells", "1 to 25 nM"),
    ("Cc1nc(N)c2c(-c3ccc(NC(=O)C(O)c4cc(F)cc(F)c4)cc3F)cn(C)c2n1 (stereo not drawn) [Example 84]", "GFP-eIF2α in HEK293 cells", "101 to 250 nM"),
    ("CCc1cccc(C(O)C(=O)Nc2ccc(-c3cn(C)c4nc(C)nc(N)c34)c(F)c2)c1 (stereo not drawn) [Example 75]", "GFP-eIF2α in HEK293 cells", "1000 to 2000 nM"),
    ("Cc1nc(N)c2c(-c3ccc(NC(=O)C(O)c4cccc(F)c4)cc3Cl)cn(C)c2n1 (stereo not drawn) [Example 91]", "GFP-eIF2α in HEK293 cells", "501 to 1000 nM"),
    ("Cc1nc(N)c2c(-c3ccc(NC(=O)C(O)c4cccc(C(F)(F)F)c4)c(F)c3F)cn(C)c2n1 (stereo not drawn) [Example 108]", "GFP-eIF2α in HEK293 cells", "101 to 250 nM"),
    ("Cc1nc(N)c2c(-c3ccc(NC(=O)C(O)c4cccc(F)c4)c(F)c3)cn(C)c2n1 (stereo not drawn) [Example 89]", "GFP-eIF2α in HEK293 cells", "2000 to 3000 nM"),
    ("Cc1nc(N)c2c(-c3ccc(NC(=O)C(O)c4cccc(C(F)(F)F)n4)cc3C)cn(C)c2n1 (stereo not drawn) [Example 62]", "GFP-eIF2α in HEK293 cells", "2000 to 3000 nM"),
    ("Cc1cccc(C(O)C(=O)Nc2ccc(-c3cn(C)c4nc(C)nc(N)c34)c(F)c2)c1 (stereo not drawn) [Example 73]", "GFP-eIF2α in HEK293 cells", "501 to 1000 nM"),
    ("Cc1cc(NC(=O)C(O)c2ccccc2)ccc1-c1cn(C)c2ncnc(N)c12 (stereo not drawn) [Example 6]", "GFP-eIF2α in HEK293 cells", "1 to 25 nM"),
    ("Cc1cccc(C(O)C(=O)Nc2ccc(-c3cn(C)c4nc(C)nc(N)c34)c(Cl)c2)c1 (stereo not drawn) [Example 96]", "GFP-eIF2α in HEK293 cells", "1 to 25 nM"),
    ("Cc1nc(N)c2c(-c3ccc(NC(=O)C(O)c4cccc(Cl)c4)cc3Cl)cn(C)c2n1 (stereo not drawn) [Example 100]", "GFP-eIF2α in HEK293 cells", "101 to 250 nM"),
    ("COc1cc(NC(=O)C(O)c2cccc(F)c2)ccc1-c1cn(C)c2ncnc(N)c12 (stereo not drawn) [Example 103]", "GFP-eIF2α in HEK293 cells", "2000 to 3000 nM"),
    ("Cc1nc(N)c2c(-c3ccc(NC(=O)C(O)c4cccc(C(F)(F)F)c4)c(F)c3F)cn(C)c2n1 (stereo not drawn) [Example 107]", "GFP-eIF2α in HEK293 cells", "1 to 25 nM"),
    ("Cc1nc(N)c2c(-c3ccc(NC(=O)C(O)c4cc(F)cc(F)c4)cc3C)cn(C)c2n1 (stereo not drawn) [Example 52]", "GFP-eIF2α in HEK293 cells", "1 to 25 nM"),
    ("Cc1nc(N)c2c(-c3ccc(NC(=O)C(O)c4cccc(F)c4)cc3C)cn(C)c2n1 (single isomer, unassigned) [Example 2]", "GFP-eIF2α in HEK293 cells", "251 to 500 nM"),
    ("Cc1nc(N)c2c(-c3ccc(NC(=O)C(O)c4cc(F)cc(F)c4)c(F)c3F)cn(C)c2n1 (single isomer, unassigned) [Example 114]", "GFP-eIF2α in HEK293 cells", "1000 to 2000 nM"),
    ("Cc1nc(N)c2c(-c3ccc(NC(=O)C(O)c4cc(F)cc(C(F)(F)F)c4)cc3C)cn(C)c2n1 (single isomer, unassigned) [Example 55]", "GFP-eIF2α in HEK293 cells", "251 to 500 nM"),
    ("CCc1cc(F)cc(C(O)C(=O)Nc2ccc(-c3cn(C)c4nc(C)nc(N)c34)c(C)c2)c1 (stereo not drawn) [Example 59]", "GFP-eIF2α in HEK293 cells", "251 to 500 nM"),
    ("Cc1nc(N)c2c(-c3ccc(NC(=O)C(O)c4cccc(C(F)(F)F)c4)nc3C)cn(C)c2n1 (stereo not drawn) [Example 130]", "GFP-eIF2α in HEK293 cells", "1000 to 2000 nM"),
    ("Cc1nc(N)c2c(-c3ccc(NC(=O)C(O)c4cc(F)cc(C(F)(F)F)c4)cc3C)cn(C)c2n1 (single isomer, unassigned) [Example 54]", "GFP-eIF2α in HEK293 cells", "26 to 50 nM"),
    ("Cc1nc(N)c2c(-c3ccc(NC(=O)C(O)c4cccc(C(F)(F)F)c4)cc3C)cn(C)c2n1 (stereo not drawn) [Example 50]", "GFP-eIF2α in HEK293 cells", "1 to 25 nM"),
    ("Cc1nc(N)c2c(-c3ccc(NC(=O)C(O)c4cccc(F)c4)c(F)c3)cn(C)c2n1 (stereo not drawn) [Example 90]", "GFP-eIF2α in HEK293 cells", "26 to 50 nM"),
    ("CCc1cc(NC(=O)C(O)c2cccc(F)c2)ccc1-c1cn(C)c2nc(C)nc(N)c12 (stereo not drawn) [Example 69]", "GFP-eIF2α in HEK293 cells", "2000 to 3000 nM"),
    ("Cc1nc(N)c2c(-c3ccc(NC(=O)C(O)c4cccc(F)c4)c(F)c3F)cn(C)c2n1 (single isomer, unassigned) [Example 109]", "GFP-eIF2α in HEK293 cells", "1000 to 2000 nM"),
    ("CCc1cccc(C(O)C(=O)Nc2ccc(-c3cn(C)c4nc(C)nc(N)c34)c(C)c2)c1 (stereo not drawn) [Example 44]", "GFP-eIF2α in HEK293 cells", "1000 to 2000 nM"),
    ("Cc1nc(N)c2c(-c3ccc(NC(=O)C(O)c4cccc(Cl)c4)cc3C)cn(C)c2n1 (stereo not drawn) [Example 38]", "GFP-eIF2α in HEK293 cells", "501 to 1000 nM"),
    ("Cc1cc(F)cc(C(O)C(=O)Nc2ccc(-c3cn(C)c4nc(C)nc(N)c34)c(F)c2)c1 (stereo not drawn) [Example 86]", "GFP-eIF2α in HEK293 cells", "51 to 100 nM"),
    ("Cc1c(-c2cn(C)c3ncnc(N)c23)ccc(NC(=O)C(O)c2cccc(F)c2)c1F (stereo not drawn) [Example 118]", "GFP-eIF2α in HEK293 cells", "251 to 500 nM"),
    ("Cc1nc(N)c2c(-c3cnc(NC(=O)C(O)c4cccc(C(F)(F)F)c4)cc3C)cn(C)c2n1 (stereo not drawn) [Example 131]", "GFP-eIF2α in HEK293 cells", "251 to 500 nM"),
]
